Provenance of the data: ChEMBL document CHEMBL4152224

assay: Apparent permeability across apical to basolateral side in MDCK cells overexpressing MDR1; format: ADME, cell-based, Canis lupus familiaris; conditions: dog
Provide the reported Papp A→B of each item.
State just the number; it will be interpreted in ×10⁻⁶ cm/s.

Quick one: Papp A→B for Cn1c(=O)n(C2CCOCC2)c2c3cc(-c4ccc(OCCCN5CCCCC5)nc4)c(F)cc3ncc21 ?
6.4

Lookup COCc1ccc(-c2cc3c(cc2F)ncc2c3n([C@H]3C[C@@H](O)C3)c(=O)n2C)cn1
14

Lookup CO[C@H]1C[C@@H](n2c(=O)n(C)c3cnc4cc(F)c(-c5ccc(OCCCN(C)C)nc5)cc4c32)C1
6.8

Lookup CO[C@H]1C[C@@H](n2c(=O)n(C)c3cnc4ccc(-c5ccc(OCCCN(C)C)nc5F)cc4c32)C1
4.2

Lookup CN(C)CCCOc1ccc(-c2ccc3ncc4c(c3c2)n([C@H]2CCCOC2)c(=O)n4C)cn1
6.5

Lookup CN(C)CCCOc1ccc(-c2cc3c(cc2F)ncc2c3n(C3CCOCC3)c(=O)n2C)cn1
7.9

Lookup COCc1ccc(-c2cc3c(N[C@@H](C)c4ccn(C)n4)c(C(N)=O)cnc3cc2F)cn1
12

Lookup NC(=O)c1cnc2ccc(-c3cccnc3)cc2c1NC1CCOCC1
4.8

Lookup CO[C@H]1C[C@@H](n2c(=O)n(C)c3cnc4cc(F)c(-c5ccc(NC(=O)CCCN(C)C)nc5)cc4c32)C1
0.4

Lookup CO[C@H]1C[C@@H](n2c(=O)n(C)c3cnc4ccc(-c5ccc(OCCCN6CCCC6)nc5)cc4c32)C1
2.5

Lookup CO[C@H]1C[C@@H](n2c(=O)n(C)c3cnc4cc(F)c(-c5ccc(OCCCN(C)C)nc5F)cc4c32)C1
10
